All figures here come from patent US12459951B2.

- Tested on: KRas wild type
- PROCEDURE SUMMARY: Ras GTP Binding Domain Inhibition Assay (Ras Superfamily Assay)
- ASSAY CONTEXT: 20 μM compound, without SOS
EXPERIMENTAL ENDPOINT: KRas wild type: % inh.

COMPOUND	EXPERIMENTAL ENDPOINT	MEASURED VALUE
COc1cccc(-c2cn3nc(-c4nccn4C)nc(N[C@H]4C[C@H](OC)C4)c3c2-c2ccccc2)c1F [Compound 42]	KRas wild type: % inh.	0 (0 = 0% inhibition)
COCC1CCN(c2nc(-c3ccccn3)nn3cc(-c4ccn(C(C)C)n4)c(-c4ccccc4)c23)C1 (racemic) [Compound 25]	KRas wild type: % inh.	A (A = 1-25% inhibition)
CO[C@H]1C[C@H](Nc2nc(-c3nccn3C)nn3cc(-c4cccnc4)c(-c4ccccn4)c23)C1 [Compound 168]	KRas wild type: % inh.	A (A = 1-25% inhibition)
COC1CCCN(c2nc(-c3ccccn3)nn3cc(-c4ccn(C(C)C)n4)c(C)c23)C1 (racemic) [Compound 12]	KRas wild type: % inh.	0 (0 = 0% inhibition)

---

Listed below: inhibition at 20 µM values for each entry.
- SUBJECT OF TEST: Rho-A (Homo sapiens, UniProt P61586)
- Construct: made in house
- Sequence (P61586 whole entry): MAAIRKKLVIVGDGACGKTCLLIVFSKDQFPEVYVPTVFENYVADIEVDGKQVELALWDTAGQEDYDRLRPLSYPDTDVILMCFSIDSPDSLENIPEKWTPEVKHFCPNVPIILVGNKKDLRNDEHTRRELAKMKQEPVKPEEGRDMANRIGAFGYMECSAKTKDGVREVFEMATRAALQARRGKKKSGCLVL
- PROCEDURE SUMMARY: Ras GTP Binding Domain Inhibition Assay (Ras Superfamily Assay)
- ASSAY CONTEXT: read-out: Rho-A: % inh..
Counter-ions that a name gives are not always drawn.

MOLECULE	SUBJECT OF TEST	inhibition at 20 µM
COc1ccc(-c2cn3nc(-c4nccn4C)nc(Nc4cc(OC)ncn4)c3c2C)cn1	Rho-A (Homo sapiens, UniProt P61586)	76 to 100%
Cn1ccnc1-c1nc(O)c2c(-c3ccccc3)ccn2n1	Rho-A (Homo sapiens, UniProt P61586)	0%

I am curious: what inhibition at 20 µM value has been reported for "COCCO[C@H]1C[C@H](Nc2nc(-c3nccn3C)nn3cc(-c4ccn(C(C)C)n4)c(C)c23)C1" ?
1 to 25%

I am curious: what inhibition at 20 µM value has been reported for "COc1cccc(-c2cn3nc(-c4nccn4C)nc(O)c3c2C)c1Cl" ?
1 to 25%

I am curious: what inhibition at 20 µM value has been reported for "COc1cc(Nc2nc(-c3nccn3C)nn3cc(-c4ccn(C(C)C)n4)c(-c4ccccc4)c23)ncn1" ?
50 to 75%

I am curious: what inhibition at 20 µM value has been reported for COC[C@@H]1CC[C@@H]1CNc1nc(-c2ccccn2)nn2cc(-c3ccn(C(C)C)n3)c(-c3ccccc3)c12 (racemic) ?
1 to 25%

I am curious: what inhibition at 20 µM value has been reported for COC[C@@H]1CC[C@@H]1CNc1nc(-c2ccccn2)nn2cc(-c3ccn(C(C)C)n3)c(C)c12 (racemic) ?
0%

I am curious: what inhibition at 20 µM value has been reported for "COc1ccc(Nc2nc(-c3nccn3C)nn3cc(-c4ccn(C(C)C)n4)c(C)c23)nn1" ?
26 to 49%

I am curious: what inhibition at 20 µM value has been reported for COCC1CCN(c2nc(-c3nccn3C)nn3cc(-c4ccn(C(C)C)n4)c(-c4ccccc4)c23)C1.Cl (racemic) [Compound 19, hydrochloride salt] ?
1 to 25%

I am curious: what inhibition at 20 µM value has been reported for "Cc1c(-c2ccn(C(C)C)n2)cn2nc(-c3nccn3C)nc(Nc3ccncn3)c12" ?
76 to 100%

I am curious: what inhibition at 20 µM value has been reported for "COc1cccc(-c2cn3nc(-c4nccn4C)nc(N[C@H]4C[C@H](OC)C4)c3c2-c2ccn(C)n2)c1F" ?
1 to 25%

I am curious: what inhibition at 20 µM value has been reported for "Cc1c(-c2ccn(C(C)C)n2)cn2nc(-c3nccn3C)nc(Nc3ncccn3)c12" ?
76 to 100%

I am curious: what inhibition at 20 µM value has been reported for "CCn1ccc(-c2cn3nc(-c4nccn4C)nc(Nc4cc(OC)ncn4)c3c2C)n1" ?
76 to 100%

I am curious: what inhibition at 20 µM value has been reported for "COc1cccc(-c2cn3nc(-c4nccn4C)nc(N[C@H]4C[C@H](OC)C4)c3c2-c2ccccn2)c1F" ?
50 to 75%

I am curious: what inhibition at 20 µM value has been reported for "Cc1c(-c2ccn(C(C)C)n2)cn2nc(-c3nccn3C)nc(Nc3nnc(C4CC4)o3)c12" ?
76 to 100%

I am curious: what inhibition at 20 µM value has been reported for "Cc1c(-c2ccn(C(C)C)n2)cn2nc(-c3nccn3C)nc(Nc3nc(C4CC4)no3)c12" ?
1 to 25%

I am curious: what inhibition at 20 µM value has been reported for CO[C@H]1CC[C@@H](Nc2nc(-c3nccn3C)nn3cc(-c4ccn(C(C)C)n4)c(-c4ccccc4)c23)C1 (racemic) [Compound 18, hydrochloride] ?
1 to 25%

I am curious: what inhibition at 20 µM value has been reported for COCC1CCN(c2nc(-c3ccccn3)nn3cc(-c4ccn(C(C)C)n4)c(C)c23)C1 (racemic) ?
0%

I am curious: what inhibition at 20 µM value has been reported for "COCCO[C@H]1C[C@H](Nc2nc(-c3nccn3C)nn3cc(-c4cccc(OC)c4F)c(-c4ccccc4)c23)C1" ?
1 to 25%

I am curious: what inhibition at 20 µM value has been reported for "COc1ccnc(Nc2nc(-c3nccn3C)nn3cc(-c4ccn(C(F)F)n4)c(C)c23)n1" ?
76 to 100%

I am curious: what inhibition at 20 µM value has been reported for CO[C@H]1CC[C@@H](Nc2nc(-c3nccn3C)nn3cc(-c4ccn(C(C)C)n4)c(C)c23)C1 (racemic) ?
0%
